System: MYB mRNA
Assay: RT-qPCR splicing assay, MYB mRNA canonical (CJ) and alternative (AJ) junction
Assay type: cell-based, human
Settings: Homo sapiens, MYB canonical junction mRNA, RT-qPCR; read-out: MYB CJ (decrease in CJ mRNA levels, IC50)
Could you please report measured IC50 for the items listed next?

Example entries and their recorded answers appear below.
- molecule: "Cc1nc2cc(O)c(-c3ccc4nc(N5CCN[C@H](C6CC6)C5)ccc4n3)cc2o1"
  IC50: "100 to 1000 nM"
- molecule: "Cc1nc2c(C)c(O)c(-c3ccc4cc(N5CC[C@H](NC(C)(C)C)C5)ncc4n3)cc2o1 (single isomer, unassigned)"
  IC50: "1000 to 10000 nM"
- molecule: "Cc1cn2nc(-c3ccc4nc(N5CCC(NC6CC6)C5)ccc4n3)c(O)c2c(C)n1 (stereo not drawn)"
  IC50: "100 to 1000 nM"
- molecule: "CNC(=O)c1nc(-c2cc3cn(C)nc3cc2O)nc2ccc(N3C[C@@H](C)N[C@@H](C)C3)cc12"
  IC50: "< 100 nM"

Each of the following entries comes with a recorded value; kindly state IC50 for each.
1. Cc1cn2cc(-c3ccc4nc(N5CCC(NC(C)(C)C)C5)ccc4n3)nc(C)c2n1 (stereo not drawn)
2. Cc1nc2c(C)c(O)c(-c3ccc4nc(N5CC[C@H](NC6(CF)CC6)C5)ccc4n3)cc2o1 (single isomer, unassigned)
3. Cc1nc(-c2ccc3nc(N4CCC(NC(C)(C)C)C4)ccc3n2)cc2cn(C)nc12 (stereo not drawn)
4. Cc1nc2c(C)c(O)c(-c3ccc4nc(N5CC[C@@H](NC(C)(C)C)C5)ccc4n3)cc2o1
5. Cc1nc2cc(O)c(-c3ccc4nc(N5CCC(N)CC5)ccc4n3)cc2o1

Result block:
["1000 to 10000 nM", "< 100 nM", "> 10000 nM", "< 100 nM", "1000 to 10000 nM"]

Each of the following entries comes with a recorded value; kindly state IC50 for each.
1. Cn1cc2cc(-c3ccc4nc(C5CCNCC5)ccc4n3)c(O)cc2n1
2. Cn1cc2cc(-c3ccc4nc(N5CCC(NC(C)(C)C)CC5)ccc4n3)c(O)cc2n1
3. Cc1nc2c(F)c(O)c(-c3ccc4nc(N5CC[C@@H](NC6(CF)CC6)C5)ccc4n3)cc2o1 (single isomer, unassigned) [Compound 372]
4. CNC(=O)c1nc(-c2cc3cn(C)nc3c(F)c2O)nc2ccc(N3CCC(N4CCC4)CC3)cc12
5. Cn1cc2cc(-c3ccc4nc(N5C[C@H]6CC[C@@H](C5)N6)ccc4n3)c(O)cc2n1
6. Cn1cc2cc(-c3ccc4nc(N5CCC56CCCNC6)ccc4n3)c(O)cc2n1 (stereo not drawn)

Result block:
1. < 100 nM
2. > 10000 nM
3. < 100 nM
4. < 100 nM
5. 100 to 1000 nM
6. 1000 to 10000 nM

###

Test system: MYB
Assay: HiBiT protein abundance assay, MYB (K562 HiBiT knock-in)
Format: cell-based, human
Details: HiBiT knock-in K562 cells, 24 hours, top dose 10 μM
pIC50: −log10 of the molar value. Structures can show the parent of a compound that is named as a salt.
readoutType: pIC50

Example entries and their recorded answers appear below.
- compound: "Cn1cc2cc(-c3ccc4nc(N5CC[C@@H](NCC6CC6)C5)ccc4n3)c(O)cc2n1"
  pIC50: "> 7.00"
- compound: "C[C@@H]1CN(c2cc(F)c3nc(-c4cc5cn(C)nc5c(F)c4O)ccc3c2)C[C@H](C)N1 [Compound 763, hydrochloride]"
  pIC50: "> 7.00"
- compound: "Cn1cc2cc(O)c(-c3ccc4nc(C5CCNCC5)ccc4n3)cc2n1"
  pIC50: "5.00 to 6.00"
- compound: "Cn1cc2cc(-c3cc4ccc(N5CCC(NC(C)(C)C)C5)nc4cn3)c(O)cc2n1 (stereo not shown)"
  pIC50: "5.00 to 6.00"
- compound: "Cn1cc2cc(-c3ccc4nc(N5CCC(NC6(CF)CC6)C5)ccc4n3)c(O)c(F)c2n1 (stereo in doubt) [Compound 353]"
  pIC50: "> 7.00"

Each of the following entries comes with a recorded value; kindly state pIC50 for each.
1. Cn1cc2cc(-c3ccc4nc(N5CC[C@H](NC(C)(C)C)C5)ccc4n3)c(O)cc2n1
2. Cn1cnc2cc(-c3ccc4nc(N5CCC(NC(C)(C)C)C5)ccc4n3)c(O)cc2c1=O (stereo not shown)

Result block:
1. > 7.00
2. < 5.00
